We begin with a simple list: items and their reported cytotoxicity at 10 µM.
# ASSAY_NOTES: Toxicity liver stage against HepG2, at 10uM
# Assay type: cell-based
# Design: test concentration 10 uM, cell line HepG2-A16-CD81EGFP
# MEASUREMENT_PARAMETERS: human, HepG2-A16-CD81EGFP cells; read-out: INHIBITION
TEST_READOUT: cytotoxicity at 10 µM (%)

>>> print(df.to_string())
                                    compound  unit_tag  result_value
 0  CCC(C(=O)N(Cc1ccccn1)C1CCCCC1)n1cccn1 (centres undefined)         %         -45.3
 1  CN(C)C(C(=O)N1CCSCC1)c1ccccc1F (centres undefined)         %          0.32
 2  Cc1nn(C)c(C)c1C1COCCN1C(=O)c1cnc(N)c(Cl)c1 (centres undefined)         %         -8.21
 3  CN(Cc1cnn(C)c1)C(CO)c1cccc(Br)c1 (centres undefined)         %         -2.86
 4    Cc1ccc(NC(=O)N2CCN(Cc3ccccn3)CC2)cc1Cl         %         -7.21
 5            CCCN(Cc1nccn1C)C(=O)c1cnn[nH]1         %         -1.21
 6    Cc1nc(C(C)(C)C)sc1C(=O)NCCNc1ncccc1C#N         %         -15.8
 7  CCCn1cc(C(=O)N2CCCC2(C)c2nc(C)cc(C)n2)cn1 (centres undefined)         %          4.28
 8  Cc1cncc(C2CCCN(Cc3ccncc3)C2)n1 (centres undefined)         %          -9.8
 9  CC(C)Cc1ncc2c(n1)CN(c1cc(N3CCCC3)nc(N)n1)C2         %         0.489
10         Cc1nc(CN2CCc3cnc(C(C)C)nc3C2)oc1C         %         0.479
11  CC(C)c1cc(CNC(=O)Nc2cc(F)cc(N3CCCC3)c2)on1         %          1.57
12  CN(C)S(=O)(=O)N1CC[C@]2(O)CCN(c3nccs3)C[C@@H]2C1         %           -13
13        N#Cc1ncn(CCC(=O)Nc2cc(Cl)ccc2Cl)n1         %          -161
14     CN(Cc1cc(Cl)cc2cccnc12)CC1CCN(CCO)CC1         %          -5.2
15  CS(=O)(=O)N1CCC(Oc2ccc(C(=O)NC3CCCC3)cc2Cl)CC1         %         -1.02
16  CC[S+]([O-])CCc1nc(CC(C)C)nn1-c1ccc2c(c1)OCCO2 (centres undefined)         %          4.24
17               CN(C)c1nc(NCCc2ccnn2C)ncc1F         %         -9.83
18         Cn1cc(CNS(=O)(=O)c2cc(F)ccc2F)cn1         %        -0.439
19  N#Cc1ccc(N2CCC3(CCC(=O)N3CCN3CCCC3)CC2)nc1         %          -114
20  CC(C)(NS(C)(=O)=O)c1nc(-c2ccc(F)c(F)c2)no1         %         -1.49
21  CCC(CC)c1nnc(NC(=O)N2CCCC(NC(C)=O)C2)s1 (centres undefined)         %           5.9
22  CC(Cn1cccn1)NC(=O)NCc1ccnc(OC2CCCC2)c1 (centres undefined)         %         -4.59
23             CSCC(=O)Nc1nccn1Cc1ccc(Br)cc1         %         -45.8
